Source listed as ChEMBL document CHEMBL5214898.

assay: Half life in Wistar Han rat plasma 2 mg/kg, iv by LC-MS/MS analysis; type: ADME, organism-based
quantity_measured: half-life

[
  {
    "mol_smiles": "CCC(=O)CCCCC[C@H](NC(=O)[C@H]1CC12CCN(C(C)C)CC2)c1ncc(-c2cc3ccc(C)nc3cc2OC)[nH]1",
    "half-life": "24 h"
  }
]

For reference, reported half-life for CCC(=O)CCCCC[C@H](NC(=O)[C@H]1CC12CCN(CC)CC2)c1ncc(-c2cc3cccnc3nc2OC)o1 stands at 3.9 h

Query CCC(=O)CCCCC[C@H](NC(=O)[C@H]1CC12CCN(CC)CC2)c1ncc(-c2cc3ccc(C)nc3cc2OC)o1 yields half-life of 5.4 h

// CCC(=O)CCCCC[C@H](NC(=O)[C@H]1CC12CCN(C)CC2)c1ncc(-c2cc3cccnc3cc2OC)[nH]1 : half-life value = 9.5 h

The compound CCC(=O)CCCCC[C@H](NC(=O)[C@H]1CC12CCN(CC)CC2)c1ncc(-c2cc3ccn(CC)c(=O)c3cc2OC)o1 showed half-life equal to 6.5 h

Reported half-life of CCC(=O)CCCCC[C@H](NC(=O)[C@H]1CC12CCN(CC)CC2)c1ncc(-c2cc3ccc(C)nc3cc2OC)[nH]1 : 13 h

For this compound ( CCC(=O)CCCCC[C@H](NC(=O)[C@H]1CC12CCN(C)CC2)c1ncc(-c2cc3ccc(C)nc3cc2OC)[nH]1 ), measured half-life is 33 h

* * *

experiment: Oral bioavailability in Wistar Han rat plasma 10 mg/kg measured for 15 to 1440 mins by LC-MS/MS analysis relative to control; type: ADME, organism-based; settings: time 15-1440 min
// bioavailability lookup, one value per entry
Quick reminder: number only, in %, skip the unit.

Some solved entries appear below for comparison.
[
  {
    "mol_smiles": "CCC(=O)CCCCC[C@H](NC(=O)[C@H]1CC12CCN(CC)CC2)c1ncc(-c2cc3ccn(CC)c(=O)c3cc2OC)o1",
    "bioavailability / %": 22
  },
  {
    "mol_smiles": "CCC(=O)CCCCC[C@H](NC(=O)[C@H]1CC12CCN(C)CC2)c1ncc(-c2cc3cccnc3cc2OC)[nH]1",
    "bioavailability / %": 2
  }
]

Sure, the documented bioavailability for CCC(=O)CCCCC[C@H](NC(=O)[C@H]1CC12CCN(CC)CC2)c1ncc(-c2cc3cccnc3nc2OC)o1 is 20

* * *

test: Cmax in Wistar Han rat plasma 10 mg/kg, po measured for 15 to 1440 mins by LC-MS/MS analysis; assay type: ADME, organism-based
quantity_measured: Cmax (nM)
Output spec: scalar in nM, unitless text.

[
  {
    "mol_smiles": "CCC(=O)CCCCC[C@H](NC(=O)[C@H]1CC12CCN(CC)CC2)c1ncc(-c2cc3cccnc3nc2OC)o1",
    "Cmax (nM)": 2100
  }
]

Entry CCC(=O)CCCCC[C@H](NC(=O)[C@H]1CC12CCN(C)CC2)c1ncc(-c2cc3ccc(C)nc3cc2F)o1 , Cmax reported as 63

According to the records, this compound CCC(=O)CCCCC[C@H](NC(=O)[C@H]1CC12CCN(CC)CC2)c1ncc(-c2cc3ccn(CC)c(=O)c3cc2OC)o1 displays Cmax of 120

Cmax in this record for CCC(=O)CCCCC[C@H](NC(=O)[C@H]1CC12CCN(CC)CC2)c1ncc(-c2cc3ccc(C)nc3cc2OC)[nH]1 : 97

Looking up CCC(=O)CCCCC[C@H](NC(=O)[C@H]1CC12CCN(C(C)C)CC2)c1ncc(-c2cc3ccc(C)nc3cc2OC)[nH]1 , I see its Cmax listed as 9

For this compound ( CCC(=O)CCCCC[C@H](NC(=O)[C@H]1CC12CCN(C)CC2)c1ncc(-c2cc3cccnc3cc2OC)[nH]1 ), measured Cmax is 20

GET /value?item= CCC(=O)CCCCC[C@H](NC(=O)[C@H]1CC12CCN(C)CC2)c1ncc(-c2ccc3nc(C)ccc3c2)[nH]1 &field=Cmax returns 4

* * *

assay: AUC in Beagle dog plasma 2 mg/kg, po measured for 15 to 1440 mins by LC-MS/MS analysis; type: ADME, organism-based, Canis lupus familiaris
quantity_measured: AUC (µM·h)
Please respond with the number in µM·h and leave the unit unwritten.

[
  {
    "mol_smiles": "CCC(=O)CCCCC[C@H](NC(=O)[C@H]1CC12CCN(C)CC2)c1ncc(-c2cc3ccc(C)nc3cc2OC)o1",
    "quantity_measured": "AUC",
    "numeric_readout": 0.57
  },
  {
    "mol_smiles": "CCC(=O)CCCCC[C@H](NC(=O)[C@H]1CC12CCN(CC)CC2)c1ncc(-c2cc3ccc(C)nc3cc2OC)o1",
    "quantity_measured": "AUC",
    "numeric_readout": 0.07
  }
]

Please find the next molecule below.
Lookup result for CCC(=O)CCCCC[C@H](NC(=O)[C@H]1CC12CCN(CC)CC2)c1ncc(-c2cc3ccc(C)nc3cc2OC)[nH]1 ; measured AUC: 0.1

* * *

test: Oral bioavailability in Wistar Han rat plasma 10 mg/kg measured for 15 to 1440 mins by LC-MS/MS analysis relative to control; type: ADME, organism-based; settings: time 15-1440 min
Decision: bioavailability >= 8% yields yes, all other cases yield no.

[
  {
    "mol_smiles": "CCC(=O)CCCCC[C@H](NC(=O)[C@H]1CC12CCN(C)CC2)c1ncc(-c2cc3ccc(C)nc3cc2F)o1",
    "category": "no"
  },
  {
    "mol_smiles": "CCC(=O)CCCCC[C@H](NC(=O)[C@H]1CC12CCN(C)CC2)c1ncc(-c2ccc3nc(C)ccc3c2)[nH]1",
    "category": "no"
  },
  {
    "mol_smiles": "CCC(=O)CCCCC[C@H](NC(=O)[C@H]1CC12CCN(C)CC2)c1ncc(-c2cc3ccc(C)nc3cc2OC)o1",
    "category": "yes"
  },
  {
    "mol_smiles": "CCC(=O)CCCCC[C@H](NC(=O)[C@H]1CC12CCN(CC)CC2)c1ncc(-c2cc3ccc(C)nc3cc2OC)o1",
    "category": "yes"
  },
  {
    "mol_smiles": "CCC(=O)CCCCC[C@H](NC(=O)[C@H]1CC12CCN(C(C)C)CC2)c1ncc(-c2cc3ccc(C)nc3cc2OC)[nH]1",
    "category": "no"
  },
  {
    "mol_smiles": "CCC(=O)CCCCC[C@H](NC(=O)[C@H]1CC12CCN(CC)CC2)c1ncc(-c2cc3cn(C)nc3cc2OC)o1",
    "category": "yes"
  }
]

Lab note: next compound to report on.
// inclusive: bioavailability at least 8%? input: CCC(=O)CCCCC[C@H](NC(=O)[C@H]1CC12CCN(C)CC2)c1ncc(-c2cc3ccc(C)nc3cc2OC)[nH]1
no

* * *

test: Cmax in Wistar Han rat plasma 10 mg/kg, po measured for 15 to 1440 mins by LC-MS/MS analysis; type: ADME, organism-based
quantity_measured: Cmax
Output should be the measured figure followed by the unit it is expressed in.

Examples with their reported Cmax follow.
[
  {
    "mol_smiles": "CCC(=O)CCCCC[C@H](NC(=O)[C@H]1CC12CCN(C)CC2)c1ncc(-c2cc3ccc(C)nc3cc2OC)o1",
    "Cmax": "2500 nM"
  },
  {
    "mol_smiles": "CCC(=O)CCCCC[C@H](NC(=O)[C@H]1CC12CCN(CC)CC2)c1ncc(-c2cc3cn(C)nc3cc2OC)o1",
    "Cmax": "510 nM"
  },
  {
    "mol_smiles": "CCC(=O)CCCCC[C@H](NC(=O)[C@H]1CC12CCN(C)CC2)c1ncc(-c2cc3ccc(C)nc3cc2OC)[nH]1",
    "Cmax": "170 nM"
  }
]

// next entry
Per the record, CCC(=O)CCCCC[C@H](NC(=O)[C@H]1CC12CCN(CC)CC2)c1ncc(-c2cc3ccc(C)nc3cc2OC)o1 has Cmax of 150 nM

* * *

assay: Drug uptake in rat at 10 mg/kg measured after 24 hrs; assay type: ADME, organism-based; settings: in vivo, read-out: Drug uptake
quantity_measured: concentration at 24 h (nM)
Give the number; nM is assumed, so skip it.

Item: CCC(=O)CCCCC[C@H](NC(=O)[C@H]1CC12CCN(C)CC2)c1ncc(-c2cc3ccccc3nc2OC)[nH]1 | concentration at 24 h: 9

* * *

test: Clearance in Wistar Han rat plasma 2 mg/kg, iv measured for 2 to 1440 mins by LC-MS/MS analysis; assay type: ADME, organism-based; conditions: time 2-1440 min
Each entry below carries its recorded clearance.
Give the quantity in mL/min/kg, number only.

[
  {
    "mol_smiles": "CCC(=O)CCCCC[C@H](NC(=O)[C@H]1CC12CCN(CC)CC2)c1ncc(-c2cc3ccn(CC)c(=O)c3cc2OC)o1",
    "quantity_measured": "clearance",
    "numeric_readout": 100
  },
  {
    "mol_smiles": "CCC(=O)CCCCC[C@H](NC(=O)[C@H]1CC12CCN(CC)CC2)c1ncc(-c2cc3cn(C)nc3cc2OC)o1",
    "quantity_measured": "clearance",
    "numeric_readout": 49
  },
  {
    "mol_smiles": "CCC(=O)CCCCC[C@H](NC(=O)[C@H]1CC12CCN(C)CC2)c1ncc(-c2cc3ccc(C)nc3cc2OC)o1",
    "quantity_measured": "clearance",
    "numeric_readout": 25
  },
  {
    "mol_smiles": "CCC(=O)CCCCC[C@H](NC(=O)[C@H]1CC12CCN(CC)CC2)c1ncc(-c2cc3ccc(C)nc3cc2OC)o1",
    "quantity_measured": "clearance",
    "numeric_readout": 65
  },
  {
    "mol_smiles": "CCC(=O)CCCCC[C@H](NC(=O)[C@H]1CC12CCN(C)CC2)c1ncc(-c2cc3ccc(C)nc3cc2OC)[nH]1",
    "quantity_measured": "clearance",
    "numeric_readout": 12
  },
  {
    "mol_smiles": "CCC(=O)CCCCC[C@H](NC(=O)[C@H]1CC12CCN(C)CC2)c1ncc(-c2cc3cccnc3cc2OC)[nH]1",
    "quantity_measured": "clearance",
    "numeric_readout": 61
  },
  {
    "mol_smiles": "CCC(=O)CCCCC[C@H](NC(=O)[C@H]1CC12CCN(C)CC2)c1ncc(-c2cc3ccc(C)nc3cc2F)o1",
    "quantity_measured": "clearance",
    "numeric_readout": 71
  }
]

The measured clearance associated with CCC(=O)CCCCC[C@H](NC(=O)[C@H]1CC12CCN(C(C)C)CC2)c1ncc(-c2cc3ccc(C)nc3cc2OC)[nH]1 reads 60
